Sourced from PubChem BioAssay (Tox21)

Protocol notes: qHTS assay for small molecule disruptors of the mitochondrial membrane potential (AID 720635)
Condition summary: HepG2 mitochondrial membrane potential, Mito-MPS dye ratio; series mostly up to 83.2 µM
Records with an inconclusive call do not appear. Calls of active or inactive are those of the source. Calls come from the whole dose curve; as a rule, active = well fitted inhibition curve with a large enough effect in the signal ratio in the repeat runs; inconclusive = weak or mixed curves, or effect the other way; inactive = flat fitted curve, though single readings scatter; the % refers to the signal ratio.
Outcomes: active, inactive

COc1cc2nc(N3CCN(C(=O)C4COc5ccccc5O4)CC3)nc(N)c2cc1OC (stereo not given)    inactive
C=CCOC(=O)CCC1CCCCC1    inactive
Cc1c(N)cccc1[N+](=O)[O-]    inactive
CCCCCCCC#N    inactive
C=C(C)C(=O)OCCO    inactive
C[N+]1(CC2COC(c3ccccc3)(C3CCCCC3)O2)CCCCC1 (stereo not given)    inactive
CC(=O)c1cccc([N+](=O)[O-])c1    inactive
CCCCC(CC)CN1C(=O)C2C3C=CC(C3)C2C1=O (stereo not given)    active
O=C(O)c1nc(Cl)c(Cl)c(Cl)c1Cl    inactive
N=c1ccn2c(n1)O[C@H]1[C@H](O)[C@@H](CO)O[C@H]12    inactive
C[N+](C)(C)CCOC(=O)CCC(=O)OCC[N+](C)(C)C    inactive
CCc1c(C(=O)NN2CCCCC2)nn(-c2ccc(Cl)cc2Cl)c1-c1ccc(Br)cc1    active
Cc1cc(C(=O)O)ccc1[N+](=O)[O-]    inactive
CCOC(=O)NCCOc1ccc(Oc2ccccc2)cc1    active
O=[N+]([O-])c1ccc2[nH]ncc2c1    active
O=C(O)c1ccco1    inactive
C[C@@H]1C[C@H]2O[C@@]3(O[C@@H]2C(C)(C)O)[C@H](O)[C@@]2(C)[C@@H]4CC[C@H]5C(C)(C)[C@@H](O[C@@H]6OC[C@@H](O)[C@H](O)[C@H]6O)CC[C@@]56C[C@@]46CC[C@]2(C)[C@@H]13    active
Cc1cccc(C)c1NC(=O)CN(CC(=O)O)CC(=O)O    inactive
CCCCCCc1ccc(-c2ccc(C#N)cc2)cc1    active
c1ccc(-c2ccccn2)nc1    inactive
CC1CCC(=O)C1=O (stereo not given)    inactive
CC(C)(C)OCC1CO1 (stereo not given)    inactive
C[N+]1(C)CCC(OC(=O)C(O)(c2ccccc2)C2CCCC2)C1 (stereo not given)    inactive
C/C=C/C=C/CO    inactive
O=C(OCCCCCCOC(=O)c1ccccc1)c1ccccc1    inactive
O=C(O)C(S)C(S)C(=O)O (stereo not given)    inactive
CCn1cc(C(=O)O)c(=O)c2cnc(N3CCNCC3)nc21    inactive
COc1ccc(C(=O)c2ccc(OC)cc2O)c(O)c1    active
O=S(=O)(Oc1ccc(Cl)cc1)c1ccccc1    active
COC(C)(C)CCO    inactive
COc1cccc(N(C)C(=S)Oc2ccc3c(c2)CCCC3)n1    active
O=C1c2ccccc2S(=O)(=O)N1CCCCN1CCN(c2ncccn2)CC1    inactive
CC(CSC(=O)c1ccccc1)C(=O)N1C[C@@H](Sc2ccccc2)C[C@H]1C(=O)O (stereo not given in full)    inactive
CN(C)c1ccc(CCO)cc1    inactive
NC(N)=NCCC[C@H](N)C(=O)O    inactive

----------
Protocol notes: qHTS assay to identify small molecule antagonists of the androgen receptor (AR) signaling pathway - cell viability counter screen (AID 743033; note: nearly all actives have a fitted effect of over 45% in size)
Condition summary: AR-bla HEK293 viability, CellTiter-Glo luminescence, 16 h; series mostly up to 58.5 µM
Records with an inconclusive call do not appear. Calls of active or inactive are those of the source. Calls follow the shape of the dose curve; as a rule, active = well fitted cell-killing curve with a large enough effect in the repeat runs; inconclusive = weak or mixed curves; inactive = no such curve, though single readings can be large or run the other way.
Outcomes: label 1 for active, label 0 for inactive

CCO[C@H](Cc1ccc(OCCc2ccc(OS(C)(=O)=O)cc2)cc1)C(=O)O    label 0
CN(C)c1ccc(C(c2ccccc2)c2ccc(N(C)C)cc2)cc1    label 0
O=S(=O)(Oc1ccc(Cl)cc1)c1ccccc1    label 0
CCCCCCCC/C=C\CCCCCCCC(=O)OCC    label 0
CCOC(=O)c1cccnc1    label 0
CCCCCCCN    label 0
CCNc1cc(O)ccc1C    label 0
COc1cc(Cl)c(OC)cc1N    label 0
O=S(c1cc(Cl)cc(Cl)c1O)c1cc(Cl)cc(Cl)c1O    label 0
CC1(c2ccccc2)OC(C(=O)O)=CC1=O (stereo not drawn)    label 0
c1cc(CCCc2ccncc2)ccn1    label 0
O=[N+]([O-])c1cccc(S(=O)(=O)O)c1    label 0
Cc1ncc(CO)c(C=O)c1O    label 0
CCCCCCCCO[C@@H]1O[C@H](CO)[C@@H](O)[C@H](O)[C@H]1O    label 0
CCn1cc(C(=O)O)c(=O)c2cnc(N3CCNCC3)nc21    label 0
CCC(C)O (stereo not drawn)    label 0
CCCCO    label 0
OCCNCc1ccccc1    label 0
CNCCCCOc1ccccc1Cc1ccccc1    label 0
O=C1OC(CN2CCOCC2)CN1/N=C/c1ccc([N+](=O)[O-])o1 (stereo not drawn)    label 0
NCc1ccccc1Sc1ccccc1CO    label 0
CN1CCC(N(Cc2cccs2)c2ccccc2)CC1    label 0
O=C1CCC(=O)O1    label 0
COc1ccc(C(=O)Nc2nc3ccccc3c(NCc3ccccc3)c2C#N)cc1    label 0
C=CC(=O)OCCOCCOCCOCCOC(=O)C=C    label 1
C/C(=C(\CCOP(=O)(O)O)SC(=O)c1ccccc1)N(C=O)Cc1cnc(C)nc1N    label 0
C[C@@H](c1ncncc1F)C(O)(Cn1cncn1)c1ccc(F)cc1F (stereo partly drawn)    label 0
COCC(C)OC(C)=O (stereo not drawn)    label 0
